Target: recombinant human NaV1.8 stably transfected HEK cells (Homo sapiens)
Construct: expressed in transfected cells; host or cells: HEK cells, stably transfected
Sequence (Q9Y5Y9 whole entry): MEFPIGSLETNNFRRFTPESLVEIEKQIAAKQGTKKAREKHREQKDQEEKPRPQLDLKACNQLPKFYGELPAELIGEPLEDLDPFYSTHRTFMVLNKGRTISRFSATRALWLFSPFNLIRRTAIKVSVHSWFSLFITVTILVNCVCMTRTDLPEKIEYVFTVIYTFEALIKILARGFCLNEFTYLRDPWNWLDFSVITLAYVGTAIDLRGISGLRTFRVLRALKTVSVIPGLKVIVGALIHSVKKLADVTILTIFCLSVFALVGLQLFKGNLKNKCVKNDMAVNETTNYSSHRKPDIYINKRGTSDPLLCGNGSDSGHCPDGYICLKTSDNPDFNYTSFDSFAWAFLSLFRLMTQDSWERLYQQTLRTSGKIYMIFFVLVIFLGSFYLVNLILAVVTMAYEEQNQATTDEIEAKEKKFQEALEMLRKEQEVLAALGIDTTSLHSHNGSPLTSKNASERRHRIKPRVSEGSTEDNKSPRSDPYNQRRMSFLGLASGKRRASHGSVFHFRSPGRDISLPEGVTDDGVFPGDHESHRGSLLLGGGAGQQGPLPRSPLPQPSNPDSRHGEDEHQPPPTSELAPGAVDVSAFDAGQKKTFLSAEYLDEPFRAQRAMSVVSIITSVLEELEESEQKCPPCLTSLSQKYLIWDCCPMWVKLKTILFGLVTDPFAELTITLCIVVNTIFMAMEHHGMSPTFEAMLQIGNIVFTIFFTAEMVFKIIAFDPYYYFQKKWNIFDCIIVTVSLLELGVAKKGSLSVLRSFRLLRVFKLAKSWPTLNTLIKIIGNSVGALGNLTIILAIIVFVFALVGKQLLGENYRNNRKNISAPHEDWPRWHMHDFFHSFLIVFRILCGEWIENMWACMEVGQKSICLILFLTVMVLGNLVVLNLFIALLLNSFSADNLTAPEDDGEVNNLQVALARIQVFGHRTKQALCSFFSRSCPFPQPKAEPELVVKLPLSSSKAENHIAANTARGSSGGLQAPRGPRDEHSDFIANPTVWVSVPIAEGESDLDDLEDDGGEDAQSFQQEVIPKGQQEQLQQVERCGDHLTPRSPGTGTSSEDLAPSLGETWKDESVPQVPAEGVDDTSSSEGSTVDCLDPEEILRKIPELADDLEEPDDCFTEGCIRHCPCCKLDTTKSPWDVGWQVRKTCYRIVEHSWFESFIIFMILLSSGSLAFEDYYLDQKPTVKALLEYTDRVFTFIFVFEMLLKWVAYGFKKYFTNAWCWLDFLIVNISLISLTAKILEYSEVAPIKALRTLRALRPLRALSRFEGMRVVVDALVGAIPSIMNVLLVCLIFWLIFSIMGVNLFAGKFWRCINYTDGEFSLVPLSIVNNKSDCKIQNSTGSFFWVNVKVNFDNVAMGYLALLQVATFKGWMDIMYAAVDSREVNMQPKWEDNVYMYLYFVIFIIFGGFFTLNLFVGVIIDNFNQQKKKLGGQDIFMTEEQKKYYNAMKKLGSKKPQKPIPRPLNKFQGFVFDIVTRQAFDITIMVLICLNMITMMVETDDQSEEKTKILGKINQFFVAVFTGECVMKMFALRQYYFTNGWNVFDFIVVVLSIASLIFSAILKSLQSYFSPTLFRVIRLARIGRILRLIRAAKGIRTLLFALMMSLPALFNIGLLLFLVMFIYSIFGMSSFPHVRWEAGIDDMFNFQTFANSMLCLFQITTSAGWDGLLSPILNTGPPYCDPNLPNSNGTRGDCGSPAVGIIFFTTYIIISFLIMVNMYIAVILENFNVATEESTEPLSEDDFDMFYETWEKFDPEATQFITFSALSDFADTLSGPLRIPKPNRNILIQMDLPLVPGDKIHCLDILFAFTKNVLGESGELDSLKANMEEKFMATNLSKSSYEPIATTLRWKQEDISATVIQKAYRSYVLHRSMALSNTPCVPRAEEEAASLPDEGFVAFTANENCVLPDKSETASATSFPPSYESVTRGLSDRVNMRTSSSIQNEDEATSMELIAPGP
Assay: Compound profiling on NaV1.8, human NaV1.8 cell line, SyncroPatch384PE automated patch clamp assay (Example 102, first set of compounds, Table 16)
Format: cell-based
Conditions: resting state block (P1 measurement), human NaV1.8 HEK cells, Table 16 (first set of compounds), read-out: P1IC50
pIC50: −log10 of the molar value.
Measured pIC50 accompanies every entry in the list below.

Completed entries (count: 5):
INSERT INTO measurements (compound, measured_value) VALUES
  ('COc1cc(C#N)ccc1Oc1nc(C(F)(F)F)nc(C)c1C(=O)Nc1cccc(S(C)(=N)=O)c1 (stereo not drawn)', '≥ 7.70'),
  ('COc1cc(C#N)ccc1Oc1nnc(C(F)(F)F)c(C)c1C(=O)Nc1cccc(S(C)(=N)=O)c1 (stereo not drawn)', '≥ 7.70'),
  ('COc1cc(C#N)ccc1Oc1nnc(C2=CCN(C(C)=O)CC2)c(C)c1C(=O)Nc1cccc(S(C)(=N)=O)c1 (stereo not drawn)', '6.30 to 6.70'),
  ('Cc1nn(C)cc1Oc1ncc(C(F)(F)F)cc1C(=O)Nc1cccc(S(C)(=N)=O)c1 (stereo not drawn)', '6.30 to 6.70'),
  ('Cc1c(C(F)(F)F)nnc(Oc2ccc(Cl)cc2F)c1C(=O)Nc1cccc(S(C)(=N)=O)c1 (single isomer, unassigned) [Compound 1471]', '≥ 7.70');

Please give the measured pIC50 for this compound: CS(=O)(=O)c1cccc(NC(=O)c2cc(C(F)(F)F)cnc2Oc2ccc(OC(F)(F)F)cc2F)c1
≥ 7.70

Sample CC#Cc1nnc(Oc2ccc(F)cc2C)c(C(=O)Nc2cccc(S(C)(=N)=O)c2)c1C (stereo not drawn) — what was its pIC50?
6.30 to 6.70

Which pIC50 is listed for Cc1cc(C#N)ccc1Oc1nnc(C(F)(F)F)c(C)c1C(=O)Nc1cccc([S@@](C)(=N)=O)c1 ?
≥ 7.70
